- target-or-test-system: T1, O8
- T1 chain: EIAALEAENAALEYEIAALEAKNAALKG
- test-protocol: two-hybrid library CC0;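 note: natural log of median RNA to DNA barcode read ratio; higher means stronger binding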
- reported-conditions: mean of both orientations
Labelling field: enter class 1 if recorded interaction score is less than -2. Enter class 0 if it equals or exceeds that cut-off.

Here are 6 binders together with their reported answers.
binder	category-label
EIAALEAENAALEYKIAALKAENAALEG [O15]	class 1
EIAALEAENAALEYEIAALEAKNAALKG [O8]	class 1
KNAALKAENAALEYKIAALKAKIAALKG [O10]	class 1
ENAALEAEIAALEYKNAALKAEIAALEG [O5]	class 1
EIAALEAKIAALKYENAALEAENAALEG [O3]	class 1
KNAALKAKIAALKYENAALEAKIAALKG [O6]	class 0

Does this binder meet the criterion interaction score < -2? KIAALKAEIAALEYENAALEAENAALEG [O11]
class 1

Please indicate whether the reported interaction score of ENAALEAEIAALEYENAALEAKIAALKG [O14] is strictly below -2.
class 1

# check: interaction score < -2 for EIAALEAKIAALKYKNAALKAKNAALKG [O12]
class 1

Could you please tell me whether interaction score recorded for KNAALKAKIAALKYKNAALKAEIAALEG [O13] is less than -2?
class 0

Does the reported interaction score of the following binder sit strictly below -2? KIAALKAEIAALEYKNAALKAKNAALKG [O4]
class 1

Given KIAALKAKNAALKYKIAALKAENAALEG [O7] , is recorded interaction score strictly lower than -2?
class 0

Problem: For the binder KNAALKAENAALEYEIAALEAEIAALEG [O1] , is interaction score under -2?
class 1

Determine if KIAALKAKNAALKYEIAALEAKNAALKG [O16] shows interaction score strictly lower than -2.
class 0
